Biological target: EcoRI restriction endonuclease (UniProt P00642 1-277)
Sequence (P00642 whole entry): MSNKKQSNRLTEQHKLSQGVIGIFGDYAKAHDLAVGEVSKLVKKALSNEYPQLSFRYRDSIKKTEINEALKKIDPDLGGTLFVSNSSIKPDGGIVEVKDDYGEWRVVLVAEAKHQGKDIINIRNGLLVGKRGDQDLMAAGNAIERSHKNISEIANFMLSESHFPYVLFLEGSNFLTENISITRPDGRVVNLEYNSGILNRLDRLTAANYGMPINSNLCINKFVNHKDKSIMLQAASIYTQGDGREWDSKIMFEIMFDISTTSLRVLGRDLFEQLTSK
Test: nanopore rupture with qPCR
reported-endpoint: binding signal

Some binders with known binding signal results, for comparison:
binder="105 bp TTAATTC (first base G to T) (dsDNA) DNA 1: TAAGTTGGGTAACGCCAGGGTTTTCCCAGTCACGACGTTGTAAAACGACGGCCAGTTAATTCGAGCTCGGTACCCGGGGATCCTCTAGAGTCGACCTGCAGGCAT DNA 2: ATGCCTGCAGGTCGACTCTAGAGGATCCCCGGGTACCGAGCTCGAATTAACTGGCCGTCGTTTTACAACGTCGTGACTGGGAAAACCCTGGCGTTACCCAACTTA" reported_endpoint="binding signal" result="1.18 V (threshold voltage)"
binder="105 bp AGAATTC (5' flank T to A) (dsDNA) DNA 1: TAAGTTGGGTAACGCCAGGGTTTTCCCAGTCACGACGTTGTAAAACGACGGCCAGAGAATTCGAGCTCGGTACCCGGGGATCCTCTAGAGTCGACCTGCAGGCAT DNA 2: ATGCCTGCAGGTCGACTCTAGAGGATCCCCGGGTACCGAGCTCGAATTCTCTGGCCGTCGTTTTACAACGTCGTGACTGGGAAAACCCTGGCGTTACCCAACTTA" reported_endpoint="binding signal" result="1.72 V (threshold voltage)"

Lookup result for 105 bp cognate TGAATTC (dsDNA) DNA 1: TAAGTTGGGTAACGCCAGGGTTTTCCCAGTCACGACGTTGTAAAACGACGGCCAGTGAATTCGAGCTCGGTACCCGGGGATCCTCTAGAGTCGACCTGCAGGCAT DNA 2: ATGCCTGCAGGTCGACTCTAGAGGATCCCCGGGTACCGAGCTCGAATTCACTGGCCGTCGTTTTACAACGTCGTGACTGGGAAAACCCTGGCGTTACCCAACTTA ; measured binding signal: 2.08 V (threshold voltage)
